- Tested on: OVCAR-4
- PROTOCOL: NCI tumour cell line growth inhibition, 48 h
The source made the active and inactive calls. Cut-off read from the data, not from the text of the source: active = GI50 up to about 1.1 µM and inactive = higher.
Use one of these outcomes when replying: active, inactive

Lookup: Write down the call the test reported for this compound. Item: C=C1CC/C=C(/C(=O)O)CC[C@H]2[C@@H]1CC2(C)C
Found: inactive

Lookup: What outcome does the record of this test show for COC1CCN(N(C)C)O1 (centres undefined) ?
Found: inactive

Lookup: What outcome does the record of this test show for CN(C)c1ccc(/C=C/C(=O)c2ccc(O)cc2)cc1 ?
Found: inactive

Lookup: Hi, do you know how COCC([C@@H](O)C(O)C(=O)NCC[C@@H](C)c1nc(/C=C/CC2OC3(C[C@H](O)C2C)OC(C(C[C@H](O)C(C)[C@H](O)C(C)/C=C(C)/C(C)=C/C=C/C(C)=C/C#N)OC)[C@@H](OP(=O)(O)O)C3(C)C)co1)N(C)C (some centres undefined) came out in this test?
Found: active
